Test system: SK-MEL-5
procedure details: NCI tumour cell line growth inhibition, 48 h
Activity calls are given as the source filed them. Cut-off read from the data, not from the text of the source: active = GI50 up to about 1.1 µM and inactive = higher.
Can you answer with just one of these options? class 1 for active, class 0 for inactive

Worked examples, 5 molecules total:
CN(C)CCOC1(Cc2ccc(Cl)cc2Cl)CCC(C(C)(C)C)CC1 (stereo not given) | class 0
CC(C)(C)OC(=O)n1c2ccccc2c2c(=O)nc(N3CCCCC3)sc21 | class 0
CCCCCNc1nonc1N | class 0
CCOC(=O)C1=C(NC(C)(C)C)OC/C1=N\NC(=O)Cc1ccccc1 | class 0
CCOC(=O)c1nc2cc(Cl)ccc2[nH]c1=O | class 0

[ask] Could you kindly confirm the outcome this assay logged for `C/C(=N\Nc1cc(CN2CCCC2)c(-c2ccc(Cl)cc2)nn1)C(=O)O` ?
[reply] class 0

[ask] COC(=O)C1(Cc2ccc3c(c2)CCC3)Cc2ccc3c(c2C1)CCC3 (stereo not given) ?
[reply] class 0

[ask] Lookup `C=C1C(=O)[C@@]23CC[C@@H]4[C@@]5(C)CCC[C@@]4(OC5=O)[C@@]2(C)CC[C@@H]1C3`
[reply] class 1

[ask] Let us now turn to `O=c1[nH]nc(Nc2ccc(Cl)cc2)c2nnn(-c3ccc([N+](=O)[O-])cc3)c12`
[reply] class 0

[ask] Same thing, different molecule: O=C(Nc1ccc(C(F)(F)F)cc1[N+](=O)[O-])C(=O)C1NC(=S)NC1=O (stereo not given)
[reply] class 0

###

Quick list: GI50 per entry.
Tested on: EKVX
procedure details: NCI tumour cell line growth inhibition, 48 h
Calls of active or inactive are those of the source. No stated cut-off is given here; in the data, active = GI50 up to about 1.1 µM and inactive = higher.

[ask] Requested read-out: GI50. Entry: CC(=O)OC1CC2C(C)(C)C(=O)C=C[C@]2(C)C2CCC3(C)C(c4ccoc4)C(=O)C4OC43[C@]12C (some centres not stated)
[reply] 40.5 µM (inactive)

###

System: KM-20L2
procedure details: NCI tumour cell line growth inhibition, 48 h
The source made the active and inactive calls. Rule as the data show it: active = GI50 up to about 1.1 µM and inactive = higher.
parameter measured: GI50

Here's what some known entries look like.
CCCCCCCCCCCCCCCCOP(=O)([O-])OCC[N+](C)(C)C [MILTEFOSINE] | > 10 µM (inactive)
CC(C)c1cccc(C(C)C)c1NC1=CC(=O)C(=O)c2ccccc21 | > 100 µM (inactive)
O=[N+]([O-])c1ccc(NSc2ccccc2)cc1 | 31.8 µM (inactive)

[ask] # value lookup — system KM-20L2, readout GI50, item CC1OC(OC2C(OC(=O)[C@]34CCC(C)(C)CC3C3=CCC5[C@@]6(C)C[C@H](O)[C@H](OC7OC(COC8OC(CO)C(O)C(O)C8O)C(O)C(O)C7O)[C@@](C)(C(=O)O)C6CC[C@@]5(C)C3(C)CC4)OCC(O)C2O)C(O)C(O)C1OC1OCC(O)C(O)C1O (some centres undefined)
[reply] > 100 µM (inactive)

###

Test system: MDA-N
procedure details: NCI tumour cell line growth inhibition, 48 h
Activity calls are given as the source filed them. Cut-off read from the data, not from the text of the source: active = GI50 up to about 1.1 µM and inactive = higher.
Return exactly one item of true (active), false (inactive)

O=C1/C(=C/c2cccs2)NC(=S)N1CN1CCOCC1 | false
O=C1/C(=C/c2ccccc2S)N=C(c2ccccc2)N1c1ccc2c(c1)Sc1cc(N3C(=O)/C(=C/c4ccccc4S)N=C3c3ccccc3)ccc1N2 | false

Here is another compound to look at.
[ask] Outcome? `Cn1c2ccccc2c(=O)c2cccc(C(=O)NCC(=O)O)c21`
[reply] false

###

System: XF498
procedure details: NCI tumour cell line growth inhibition, 48 h
Active and inactive are the calls of the source. Cut-off read from the data, not from the text of the source: active = GI50 up to about 1.1 µM and inactive = higher.
parameter measured: GI50

Consider the reported GI50 for these molecules:
COc1cc([C@@H]2OCC3C(c4ccc5c(c4)OCO5)OCC32)cc(OC)c1OC (some centres not stated) | 52.6 µM (inactive)
CN1CCn2c(Br)ccc2C1=O | > 100 µM (inactive)
Cc1nc2ccccc2c(=O)n1CC(=O)O | > 100 µM (inactive)
CN(C)C(=S)/N=c1\ssc(=S)n1-c1ccccc1 | 14.7 µM (inactive)

[ask] Which GI50 value is on record for O=C1C2c3[nH]c4ccccc4c3C3CCSCC3C2C(=O)N1c1ccccc1 (configuration not stated) ?
[reply] > 100 µM (inactive)

[ask] Try this molecule too: CCc1c(CNc2ccc(C(=O)NC(CC(=O)O)C(=O)O)cc2)ccc2nc(N)nc(N)c12 (configuration not stated)
[reply] > 100 µM (inactive)

[ask] Subsequent entry: `Cc1cc(C)nc(Sc2c([N+](=O)[O-])ncn2C)n1`
[reply] > 100 µM (inactive)

###

Test system: K562
procedure details: NCI tumour cell line growth inhibition, 48 h
Active and inactive are the calls of the source. No stated cut-off is given here; in the data, active = GI50 up to about 1.1 µM and inactive = higher.
parameter measured: GI50

CN(/N=C/c1ccnc2ccccc12)c1c([N+](=O)[O-])cc([N+](=O)[O-])cc1[N+](=O)[O-] | 30.7 µM (inactive)

[ask] Request the reported GI50 associated with `O=[N+]([O-])c1ccc(NSc2ccccc2)cc1`
[reply] 23.6 µM (inactive)

[ask] Can you check Oc1cccc2c1[nH]c1c(C3=C[C@@]4(O)CC/C=C\CCCCN5CC[C@@H]3[C@]3(CC6/C=C\CCCCN6[C@H]34)C5)nccc12 (some centres undefined) next?
[reply] 0.607 µM (active)

[ask] What do we get for `CCCCNC1=C(C(=O)OCC)C(=O)CO1` ?
[reply] > 100 µM (inactive)

[ask] Next compound up: `CCN(CC)CCN1c2ccccc2Sc2ccc3ccccc3c21`
[reply] 4.66 µM (inactive)

[ask] Then `O=C1/C(=C/c2cccs2)NC(=S)N1CN1CCOCC1` ?
[reply] > 100 µM (inactive)

[ask] Entry to check: `CCCCCCCCCCCCCCCCOP(=O)([O-])OCC[N+](C)(C)C`
[reply] 39 µM (inactive)

[ask] Entry `Oc1ccc(-c2nc(-c3cccnc3)c(-c3ccc(F)cc3)[nH]2)cc1` please
[reply] 16 µM (inactive)

[ask] Try the compound N#CC(C(=O)C(=O)NCCCNC(=O)C(=O)C(C#N)c1ccccc1)c1ccccc1 (centres undefined)
[reply] > 100 µM (inactive)

###

Test system: SW-620
procedure details: NCI tumour cell line growth inhibition, 48 h
Active and inactive are the calls of the source. No stated cut-off is given here; in the data, active = GI50 up to about 1.1 µM and inactive = higher.
Entry note: the call must match one of active, inactive

CC(=O)OCC1OC(c2nnc(C)o2)=CC(OC(C)=O)C1OC(C)=O (stereo not drawn) | inactive

[ask] Any idea what this test logged for `Clc1ccc(-c2cn3c(nc4ccccc43)c(-c3ccccc3)n2)cc1` ?
[reply] inactive

[ask] // same read-out, input: `C/C(COc1ccccc1)=N\NC(N)=S`
[reply] inactive

[ask] Would you mind doing `COc1ccc(/C=C2\S/C(=N/Nc3nc(-c4ccccc4)cs3)NC2=O)cc1OC` as well?
[reply] inactive

[ask] Same question, `COc1ccccc1OC(=O)/C=C/c1ccccc1` this time
[reply] inactive

[ask] Lookup `O=C1CCCCCCCCCCOC(=O)CCCCCCCCCCO1`
[reply] inactive

[ask] Entry to check: Oc1cccc2c1[nH]c1c(C3=C[C@@]4(O)CC/C=C\CCCCN5CC[C@@H]3[C@]3(CC6/C=C\CCCCN6[C@H]34)C5)nccc12 (stereo partly drawn)
[reply] inactive

[ask] And for `COc1ccc(C(=O)/C=C/c2ccc(OCCCOc3ccc(/C=C/C(=O)c4ccc(OC)cc4)cc3)cc2)cc1` ?
[reply] inactive

[ask] Next record, please: COP(=O)(OC)C(O)/C=C(\Cl)c1ccc(Cl)cc1 (stereo not drawn)
[reply] inactive

[ask] Again, but for C=C1C2C[C@@H]3O[C@H]4C[C@H]5O[C@@]6(C[C@@H]7O[C@]8(C[C@H](C)[C@@H]9O[C@@H]%10CC(CO)O[C@@H]%10C[C@@H]9O8)C[C@H](C)[C@@H]7O6)C[C@H]5O[C@H]4[C@H](C)[C@H]3OC(=O)C[C@H]3CC[C@@H]4OC5[C@H]6O[C@]7(CC[C@H]8CC(=C)[C@H](CC[C@@H](C[C@H]1C)O2)O8)CC6O[C@@H]5[C@@H](O7)[C@H]4O3 (stereo partly drawn)
[reply] active

[ask] Now try `COc1cc(N)c2[nH]c3c(C)ccc(C)c3c2c1` .
[reply] inactive

[ask] Next record, please: `Cc1ccccc1C(O)(c1nccn1C)c1nccn1C`
[reply] inactive

[ask] Param item: `CCOC(=O)C1=C(O)C(=O)c2ccsc2C1=O`
[reply] inactive

[ask] # repeat for C=C[C@@]12CCCCC1C/C(=C(/O)OC)C(=O)C2 (stereo partly drawn)
[reply] inactive

###

System: DMS-114
procedure details: NCI tumour cell line growth inhibition, 48 h
The source made the active and inactive calls. Cut-off read from the data, not from the text of the source: active = GI50 up to about 1.1 µM and inactive = higher.
As shown below, each of these molecules has a reported GI50 value.

Some solved cases for reference:
NC(=O)c1ccccc1NC(=O)C(=O)Cc1nc2ccccc2nc1O | 94.6 µM (inactive)
NC(=S)N/N=C1\C(=O)N(c2cccc([N+](=O)[O-])c2)C(=O)C1C(=O)Nc1cccc([N+](=O)[O-])c1 (stereo not drawn) | > 100 µM (inactive)

[ask] Give the reported GI50 for `CCCCCCCCCCCCCCCCOP(=O)([O-])OCC[N+](C)(C)C` (system: DMS-114).
[reply] 32.6 µM (inactive)

[ask] Can you check Nc1ccc2c(c1)C1=NNC(=O)CC1C2 (stereo not drawn) next?
[reply] > 100 µM (inactive)

[ask] And for `CN/N=C(/CC(=O)c1sc(NNC(C)=O)nc1C)C(=O)Nc1ccc(OC)cc1OC` ?
[reply] > 100 µM (inactive)

[ask] Now give it for `Cc1cc(C)nc(Sc2c([N+](=O)[O-])ncn2C)n1` too.
[reply] > 100 µM (inactive)

[ask] Note, next up: `O=C(c1ccccc1)c1cc(Cl)ccc1NCn1nnc2ccccc21`
[reply] 31.5 µM (inactive)

[ask] And for O=C(O)C1(c2ccccc2)CCCNCC1 (stereo not drawn) ?
[reply] > 100 µM (inactive)

[ask] // repeat for `CCOC(=O)C1=C(NC(C)(C)C)OC/C1=N\NC(=O)Cc1ccccc1` and report
[reply] > 100 µM (inactive)

[ask] Lookup `CN1C(=O)CSC1=S`
[reply] > 100 µM (inactive)
